Protocol Notes: Clearance in dog at 0.5 mg/kg, iv or 1 mg/kg, po
Type: ADME, […], Canis lupus familiaris
Reported Conditions: in vivo

# Item Smiles, clearance
records = [
    ("CC[C@@H]1[C@@H]2CN(C(=O)[C@H](C(C)(C)C)NC(=O)O[C@@H]3C[C@H]3CCCCC(F)(F)c3nc4ccc(OC)cc4nc3O2)[C@@H]1C(=O)N[C@]1(C(=O)NS(=O)(=O)C2(C)CC2)C[C@H]1C(F)F", "3.17 mL/min/kg"),
]

====

Protocol Notes: Volume of distribution at steady state in dog at 0.5 mg/kg, iv or 1 mg/kg, po
Format: ADME, […], Canis lupus familiaris
Reported Conditions: in vivo, read-out: Vdss
Quantity Measured: Vd (L/kg)

# Item Smiles, Measured Result
rows = [
    ("CC[C@@H]1[C@@H]2CN(C(=O)[C@H](C(C)(C)C)NC(=O)O[C@@H]3C[C@H]3CCCCC(F)(F)c3nc4ccc(OC)cc4nc3O2)[C@@H]1C(=O)N[C@]1(C(=O)NS(=O)(=O)C2(C)CC2)C[C@H]1C(F)F", 0.94),
]
